# MEASURED_TARGET: T1, Cynomolgus TNFR2-His (Sino 90102-C08H) (cynomolgus monkey, UniProt A0A2K5VET2 132-366)
# T1 construct: Bought protein; also called cynomolgus monkey TNFR2; recombinant cynomolgus monkey TNFR2 protein; not shown: His tag
# T1 sequence: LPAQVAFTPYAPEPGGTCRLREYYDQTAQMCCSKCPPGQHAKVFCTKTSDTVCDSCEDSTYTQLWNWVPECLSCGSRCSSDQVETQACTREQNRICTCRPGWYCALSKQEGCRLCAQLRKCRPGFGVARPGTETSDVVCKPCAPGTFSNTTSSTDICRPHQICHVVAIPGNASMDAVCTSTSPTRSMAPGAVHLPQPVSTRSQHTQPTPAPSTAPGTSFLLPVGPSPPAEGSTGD
# PROCEDURE_TEXT: SPR (Biacore T200), antibody captured on Protein A chip
// values below are reported kon
ENDPOINT: kon

BINDER: 224-Hu4 (antibody, V domains shown, Humanized form of #224; also called VH9 + VL6) VH: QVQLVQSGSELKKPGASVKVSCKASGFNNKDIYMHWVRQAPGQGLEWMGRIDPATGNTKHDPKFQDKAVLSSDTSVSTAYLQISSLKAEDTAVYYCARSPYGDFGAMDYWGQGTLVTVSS VL: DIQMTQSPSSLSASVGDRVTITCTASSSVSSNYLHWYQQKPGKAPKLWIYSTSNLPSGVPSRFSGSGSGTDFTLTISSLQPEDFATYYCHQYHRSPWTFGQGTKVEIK
ENDPOINT: kon
VALUE: 278000 M⁻¹ s⁻¹
--
BINDER: 001-WT (antibody, V domains shown, Human-murine chimeric wild-type molecule; also called human-murine chimeric antibody WT of #001) VH: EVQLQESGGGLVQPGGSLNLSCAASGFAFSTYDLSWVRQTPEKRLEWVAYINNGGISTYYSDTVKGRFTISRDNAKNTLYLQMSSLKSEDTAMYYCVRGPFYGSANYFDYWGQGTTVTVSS VL: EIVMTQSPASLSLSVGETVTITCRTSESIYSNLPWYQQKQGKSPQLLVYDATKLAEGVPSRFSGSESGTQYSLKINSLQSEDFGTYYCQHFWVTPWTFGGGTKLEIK
ENDPOINT: kon
VALUE: 614000 M⁻¹ s⁻¹
--
BINDER: 224-Hu2 (antibody, V domains shown, Humanized form of #224; also called VH9 + VL7) VH: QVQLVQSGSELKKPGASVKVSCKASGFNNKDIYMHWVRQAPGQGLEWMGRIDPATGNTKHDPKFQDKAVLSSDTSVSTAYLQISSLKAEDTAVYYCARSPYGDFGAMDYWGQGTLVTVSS VL: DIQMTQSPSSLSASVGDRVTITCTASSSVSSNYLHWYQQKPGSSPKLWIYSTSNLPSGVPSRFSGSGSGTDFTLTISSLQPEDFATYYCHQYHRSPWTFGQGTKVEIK
ENDPOINT: kon
VALUE: 283000 M⁻¹ s⁻¹
--
BINDER: 219-Hu1 (antibody, V domains shown, also called VH3 + VL5) VH: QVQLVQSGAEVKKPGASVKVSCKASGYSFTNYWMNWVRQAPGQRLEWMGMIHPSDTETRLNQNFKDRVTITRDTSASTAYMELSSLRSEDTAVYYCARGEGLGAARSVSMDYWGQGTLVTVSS VL: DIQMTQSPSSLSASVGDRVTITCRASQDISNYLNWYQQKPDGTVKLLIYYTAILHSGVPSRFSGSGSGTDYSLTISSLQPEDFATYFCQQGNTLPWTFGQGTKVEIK
ENDPOINT: kon
VALUE: 623000 M⁻¹ s⁻¹
--
BINDER: 219-Hu4 (antibody, V domains shown, also called VH6 + VL5) VH: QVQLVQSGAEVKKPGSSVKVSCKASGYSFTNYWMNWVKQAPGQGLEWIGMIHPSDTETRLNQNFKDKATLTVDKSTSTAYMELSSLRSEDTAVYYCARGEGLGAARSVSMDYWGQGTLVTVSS VL: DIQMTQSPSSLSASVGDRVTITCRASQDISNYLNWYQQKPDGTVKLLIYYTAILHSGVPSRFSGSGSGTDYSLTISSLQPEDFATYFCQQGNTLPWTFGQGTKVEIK
ENDPOINT: kon
VALUE: 675000 M⁻¹ s⁻¹
